test system: MDR1 (P-gp); experiment: Efflux ratio in MDCK-MDR1 cells; format: ADME, cell-based, Canis lupus familiaris; conditions: dog

- substance smiles: "C[C@@H]1[C@@H](C(=O)O)[C@H](C(=O)c2cc(C3CC3)c(OCC3CCN(Cc4c(Cl)cccc4Cl)CC3)cc2F)C[C@@H]1F"
  system: "MDR1 (P-gp)"
  efflux ratio: 2.8

====

Here the recorded IC50 is given for each entry.
molecular target: Sodium channel protein type 9 subunit alpha (Homo sapiens, UniProt Q15858); experiment: Inhibition of human Nav1.7 by patch clamp electrophysiology
Sequence (Q15858 whole entry): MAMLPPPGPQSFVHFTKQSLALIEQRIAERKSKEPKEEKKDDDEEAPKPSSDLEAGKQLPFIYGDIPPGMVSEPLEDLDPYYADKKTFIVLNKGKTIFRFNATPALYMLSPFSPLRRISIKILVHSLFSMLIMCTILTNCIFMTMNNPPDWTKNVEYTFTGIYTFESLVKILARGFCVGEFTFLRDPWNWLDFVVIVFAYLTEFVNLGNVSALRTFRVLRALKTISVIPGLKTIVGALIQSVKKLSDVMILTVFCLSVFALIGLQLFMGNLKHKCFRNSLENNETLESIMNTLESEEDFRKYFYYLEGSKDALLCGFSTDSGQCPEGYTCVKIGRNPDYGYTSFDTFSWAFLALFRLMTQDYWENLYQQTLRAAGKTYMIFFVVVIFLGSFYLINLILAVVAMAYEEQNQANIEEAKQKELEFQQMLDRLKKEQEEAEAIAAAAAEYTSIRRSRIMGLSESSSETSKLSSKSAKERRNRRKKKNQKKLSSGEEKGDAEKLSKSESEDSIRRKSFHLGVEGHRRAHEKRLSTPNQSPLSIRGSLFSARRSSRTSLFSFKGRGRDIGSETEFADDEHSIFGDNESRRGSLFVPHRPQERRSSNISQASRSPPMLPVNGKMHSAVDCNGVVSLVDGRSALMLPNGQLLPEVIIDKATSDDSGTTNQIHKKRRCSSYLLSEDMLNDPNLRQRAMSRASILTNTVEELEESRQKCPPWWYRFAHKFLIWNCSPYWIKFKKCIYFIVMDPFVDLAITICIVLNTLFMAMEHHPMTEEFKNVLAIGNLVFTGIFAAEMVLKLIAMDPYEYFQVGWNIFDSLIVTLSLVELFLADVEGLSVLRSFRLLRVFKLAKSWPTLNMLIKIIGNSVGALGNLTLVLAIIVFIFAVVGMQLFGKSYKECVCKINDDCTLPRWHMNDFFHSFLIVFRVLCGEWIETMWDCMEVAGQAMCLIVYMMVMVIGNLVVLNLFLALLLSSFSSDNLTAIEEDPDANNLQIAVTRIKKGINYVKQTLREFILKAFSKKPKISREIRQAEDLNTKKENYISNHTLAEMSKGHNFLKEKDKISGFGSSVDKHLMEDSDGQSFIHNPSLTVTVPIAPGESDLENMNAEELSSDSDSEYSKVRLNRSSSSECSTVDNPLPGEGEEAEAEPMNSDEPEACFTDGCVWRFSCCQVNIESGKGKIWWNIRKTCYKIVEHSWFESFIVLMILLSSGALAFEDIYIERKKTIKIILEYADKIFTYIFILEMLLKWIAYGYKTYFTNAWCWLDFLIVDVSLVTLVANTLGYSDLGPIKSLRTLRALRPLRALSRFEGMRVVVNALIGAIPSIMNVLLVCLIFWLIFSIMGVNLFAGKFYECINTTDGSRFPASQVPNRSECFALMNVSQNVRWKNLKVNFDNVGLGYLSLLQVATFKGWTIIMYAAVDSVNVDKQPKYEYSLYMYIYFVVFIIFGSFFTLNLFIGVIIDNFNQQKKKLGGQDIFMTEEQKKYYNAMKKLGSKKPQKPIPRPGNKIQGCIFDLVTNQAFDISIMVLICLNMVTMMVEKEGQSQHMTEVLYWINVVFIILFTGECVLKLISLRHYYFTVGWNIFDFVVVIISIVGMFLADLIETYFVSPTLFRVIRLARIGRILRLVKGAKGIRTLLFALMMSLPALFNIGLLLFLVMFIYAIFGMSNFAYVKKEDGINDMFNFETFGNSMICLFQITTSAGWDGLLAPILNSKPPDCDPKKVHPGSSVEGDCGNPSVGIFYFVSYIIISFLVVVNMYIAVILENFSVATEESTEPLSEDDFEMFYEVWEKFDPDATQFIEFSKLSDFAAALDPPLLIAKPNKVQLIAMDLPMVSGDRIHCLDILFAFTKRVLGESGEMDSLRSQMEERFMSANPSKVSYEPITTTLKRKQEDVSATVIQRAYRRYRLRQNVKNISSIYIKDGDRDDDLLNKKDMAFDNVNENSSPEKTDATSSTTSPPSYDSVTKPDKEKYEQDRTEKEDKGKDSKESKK

- compound: "C[C@@H]1[C@@H](C(=O)O)[C@H](C(=O)c2cc(C3CC3)c(OCC3CCN(Cc4c(Cl)cccc4Cl)CC3)cc2F)C[C@@H]1F"
  IC50 / nM: 13
- compound: "O=C(c1cc(C2CC2)c(OCC23CC4CC(CC(C4)C2)C3)cc1F)C1CCC[C@H]1C(=O)O (stereo not given in full)"
  IC50 / nM: 12
- compound: "C[C@@H]1[C@@H](C(=O)O)N(C(=O)c2cc(C3CC3)c(OCC34CC5CC(CC(C5)C3)C4)cc2F)C[C@@H]1F"
  IC50 / nM: 10
- compound: "O=C(O)[C@@H]1CCCN1C(=O)c1cc(C2CC2)c(OCC23CC4CC(CC(C4)C2)C3)cc1F"
  IC50 / nM: 33
- compound: "C[C@@H]1[C@@H](C(=O)O)[C@H](C(=O)c2cc(C3CC3)c(OCC34CC5CC(CC(C5)C3)C4)cc2F)C[C@@H]1F"
  IC50 / nM: 10
